# experimentalDetails: E. coli acrAB mutant growth effects, primary screen, E. coli filamentation inducers, strain DRC39, OD650, 48 h (AID 1179);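 note: screen aims at cell division blockers that make cells filament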
# conditionDetails: E. coli DRC39 delta-acrAB growth, higher = more signal, called active from +8 up or from −8 down
Label scheme for z-score: lower than -0.3 is 0, -0.3 and above is 1.

Some solved cases for reference:
inputSmiles: C=C[C@H](C)[C@@H](OC(=O)Nc1ccc(SC)cc1)c1ccc(OCCO)cc1
group: 0

inputSmiles: COc1ccc(C#Cc2ccc3c(c2)[C@]2(C(=O)N3)[C@H](c3ccccc3OCCO)N3[C@H](c4ccccc4)[C@H](c4ccccc4)OC(=O)[C@H]3[C@@H]2C(=O)NC[C@H](O)c2ccccc2)cc1
group: 0

inputSmiles: CC(C)[Si](C#Cc1ccccc1)(O[C@H](c1ccccc1)c1cn(Cc2ccccc2)nn1)C(C)C
group: 1

inputSmiles: COCCOC(=O)N1C(=O)[C@@]2(c3cc(C#CCC(C(=O)OC)C(=O)OC)ccc31)[C@H](C(=O)N1CCc3cc(OC)c(OC)cc3C1)[C@H]1C(=O)O[C@H](c3ccccc3)[C@H](c3ccccc3)N1[C@@H]2c1ccccc1OCCO
group: 1

inputSmiles: C[C@@]1([C@@H](NS(=O)(=O)c2cccc3cccnc23)c2ccc(-c3ccccc3)cc2)C[C@H]1C1CCCCC1
group: 0

Now let's try a different one.
Input line: Entry Cc1ccc(S[C@]2(C(=O)NCC(C)C)CC(=O)N(C(C)C)[C@@H]2c2ccc(CO)cc2I)cc1 : is its z-score no less than -0.3?
Output line: 1

---

# experimentalDetails: P. aeruginosa biofilm formation inhibitors, primary screen, PAO1 strain, BacTiter-Glo luminescence, LB-PBS (AID 1144)
# conditionDetails: 12 h, higher = more signal
attributeMeasured: z-score
Note: the reply should be a number with no unit written.

compound: COCCOC(=O)N1C(=O)[C@@]2(c3cc(C#CC4=CCCCC4)ccc31)[C@H](C(=O)N1CCCCCCC1)[C@H]1C(=O)O[C@H](c3ccccc3)[C@H](c3ccccc3)N1[C@@H]2c1ccccc1OCCO
attributeMeasured: z-score
recordedValue: -1.33

compound: C[C@]12C(=O)N(CCO)[C@@H]3C(=O)N(c4ccc(Cl)cc4)CC=CC31O[C@@H]1/C=C\CCCOC(=O)C12 (stereo partly drawn)
attributeMeasured: z-score
recordedValue: -0.21

compound: C=C(COC)C(=O)CC[C@H](OC(C)=O)c1ccc(CO)o1
attributeMeasured: z-score
recordedValue: -0.824

compound: O=C1O[C@@H](c2ccccc2)[C@@H](c2ccccc2)N2[C@@H](c3ccc(OCCO)cc3)[C@]3(C(=O)Nc4ccc(C#CC5=CCCCC5)cc43)[C@@H](C(=O)Nc3nc4ccccc4s3)[C@H]12
attributeMeasured: z-score
recordedValue: -1.2

compound: Cc1ccc(S[C@]2(C(=O)NCC(C)C)CC(=O)N(C(C)C)[C@@H]2c2ccc(CO)cc2I)cc1
attributeMeasured: z-score
recordedValue: 0.502

Input line: Given the entry CCCC=C(CCC)[C@@H](NC(=O)c1ccc(C(=O)OC)cc1)c1ccc(C(=O)OC)cc1 , report its measured z-score.
Output line: 0.668

Input line: Give the measured z-score of O=C1C2C=CC(C(O)C(c3ccccc3)c3ccccc3)N(Nc3ccccc3F)C2C(=O)N1c1ccccc1 (stereo not drawn) .
Output line: 0.712

Input line: Please report the recorded z-score for CN1C(=O)C2C=CC(C(O)c3ccc([N+](=O)[O-])cc3)N(Nc3ccccc3)C2C1=O (stereo not drawn) .
Output line: -0.898

---

# experimentalDetails: small-molecule binders of probe aInhba, primary screen, biochemical, small-molecule microarray, 635/667 nm fluorescence (AID 1148);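 note: score merges 667nm spot fluorescence with signal-to-noise for antibody binding to printed compounds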
# conditionDetails: higher = more signal
attributeMeasured: composite z-score
Please give only the number in your answer, with no unit.

See these solved cases before continuing.
molecule: C[C@]12C(=O)N(CCO)[C@@H]3C(=O)N(c4ccc(Cl)cc4)CC=CC31O[C@@H]1/C=C\CCCOC(=O)C12 (some centres undefined)
composite z-score: -0.21
--
molecule: [N-]=[N+]=NCc1ccccc1[C@H]1OC(c2ccc(OCCCO)cc2)=N[C@@]1(CCS(=O)(=O)c1ccccc1)C(=O)O
composite z-score: -0.13
--
molecule: CC(C)Cc1ccc(CN2CC[C@@H](NC(=O)c3ccccc3)C2)cc1
composite z-score: -0.157
--
molecule: Cc1ccc(N2C(=O)c3ccccc3[C@@H](C(=O)NCCN3CCOCC3)[C@@H]2c2ccc(CO)cc2)nc1
composite z-score: 0.0051
--
molecule: C#CCN(C(=O)OC(C)(C)C)[C@H](CO)c1ccccc1
composite z-score: -0.128
--
molecule: C=CCC(OC(C)=O)[C@@H]1[C@@H](N(Cc2cccc3ccccc23)C(=O)c2ccc(C)cc2)c2cc(OCCCO)ccc2N1C(=O)Cc1ccc2ccccc2c1 (some centres undefined)
composite z-score: -0.101

Input line: Any idea what its composite z-score is? The molecule is CCCCC=C[C@@H](NC(=O)C(C)(C)C)c1ccccc1
Output line: 0.353

Input line: Which value of composite z-score has been reported for C=C(C(=O)CC[C@@H](OC(=O)c1ccccc1-c1ccccc1C(=O)O)c1cccc(OCCO)c1)C(C)C in the records?
Output line: 0.0391

Input line: Report composite z-score for [N-]=[N+]=NCc1ccccc1[C@H]1OC(c2ccc(OCCCO)cc2)=N[C@@]1(Cc1ccccc1N=[N+]=[N-])C(N)=O please.
Output line: 0.472

---

# System: Inhibin beta A chain (activin A)
# experimentalDetails: INHBA (activin A) binders on microarrays, primary screen, biochemical, small-molecule microarray, 635 nm fluorescence scan (AID 1107);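 note: mouse activin A protein probed at 4.33 µg/mL on printed slides; score merges bound-protein fluorescence near 667 nm with spot signal-to-noise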
# conditionDetails: small-molecule microarray binding, higher = more signal
Form field: composite z-score (one value per entry).

# count of solved cases: 4
molecule: COc1cc(CO)cc(I)c1O[C@H]1C=C(C(=O)NCCO)C[C@@H](N(CCN2CCOCC2)C(=O)C2CCCO2)[C@@H]1O (stereo not given in full)
attributeMeasured: composite z-score
recordedValue: 0.356
--
molecule: CCCCN1CC=CC23O[C@@H]4/C=C\CCC(C)OC(=O)C4[C@H]2C(=O)N(CCO)[C@@H]3C1=O (stereo not given in full)
attributeMeasured: composite z-score
recordedValue: 1.19
--
molecule: COCCCNC(=O)[C@@]1(Cc2ccccc2I)c2ccccc2C(=O)N(Cc2ccccc2OC)[C@H]1c1ccc(CO)cc1
attributeMeasured: composite z-score
recordedValue: -1.43
--
molecule: CC1C2C(CCCO)=CC(C3C(=O)N(C(N)=O)C(=O)C23)N1Cc1cccc(OC(F)(F)F)c1 (stereo not given)
attributeMeasured: composite z-score
recordedValue: -0.055

Proceeding to the next molecule to report its composite z-score.
Input line: Request the reported composite z-score associated with C=CC[C@H](O)c1ccc(O)c(F)c1
Output line: -2.89

---

# experimentalDetails: MM1S cell viability effects, profiling panel, calcein-AM fluorescence, 48 h, basal (AID 1165);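 note: viability of MM1S multiple myeloma cells under basal unstimulated conditions; test concentration not given here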
# conditionDetails: higher = more signal
Categorized via z-score: small value: < -2; mid value: ≥ -2 and < -0.4; large value: ≥ -0.4

compound: C[C@]1(C(=O)NC2CC2)c2ccccc2C(=O)N(Cc2cc(F)cc(C(F)(F)F)c2)[C@H]1c1ccc(CO)cc1
group: large value
//
compound: CO[C@H]1O[C@H](CO)[C@@H](OC(=O)CCc2ccccc2)[C@@H]2OC(=O)[C@@H](Cc3ccc4ccccc4c3)C/C=C/C[C@H](Cc3ccc4ccccc4c3)C(=O)O[C@@H]12
group: mid value
//
compound: O=C1O[C@H](c2ccccc2)[C@H](c2ccccc2)N2[C@H]1[C@@H](C(=O)Nc1nc3ccccc3s1)[C@]1(C(=O)Nc3ccccc31)[C@H]2c1ccccc1OCCO
group: mid value
//
compound: C=CC[C@H](O)c1ccc(O)c2ccccc12
group: small value

Input line: Exam item: assign C=C(COC)/C(=C/C[C@@H](OC(C)=O)c1cccc(OCCO)c1)c1cnc2ccccc2c1 to the correct category.
Output line: mid value

---

# System: Plasmodium falciparum Sir2 (PF13_0152, Sir2A)
# experimentalDetails: pfSir2 binders on small-molecule microarrays, primary screen, biochemical, small-molecule microarray, 635 nm fluorescence (AID 1098);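 note: score merges spot fluorescence intensity with its signal-to-noise ratio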
# conditionDetails: small-molecule microarray binding, fluorescence 635 nm; higher = more signal
attributeMeasured: composite z-score
Output spec: single numeric token, no unit.

compound: O=C1O[C@H](c2ccccc2)[C@H](c2ccccc2)N2[C@H]1[C@@H](C(=O)N1CCN(c3ncccn3)CC1)[C@]1(C(=O)Nc3ccc(C#CC4(O)CCCCCC4)cc31)[C@H]2c1ccc(O)cc1
composite z-score: 1.54

compound: COC(=O)C1=CC(c2ccc(CO)cc2)=CC(C2CC2)N(Cc2cc3c(cc2Br)OCO3)C=C1C(=O)OC (configuration not stated)
composite z-score: 1.66

compound: COC(=O)[C@]1(Cc2ccccc2N=[N+]=[N-])N=C(c2ccc(OCCCO)cc2)O[C@@H]1c1ccccc1CN=[N+]=[N-]
composite z-score: 0.843

compound: O=C1N(Cc2ccccc2)Cc2ccccc2C[C@@]12COC(c1ccc(OCCCO)cc1)=N2
composite z-score: 0.631

compound: COC(=O)[C@@]1(Cc2ccc(F)cc2)[C@H]2c3cc(C(=O)N(C)C)n(Cc4ccsc4Br)c3C[C@H]2CN1C(=O)c1ccccc1
composite z-score: 1.3

Input line: # input compound: CCOC(=O)C[C@H]1[C@H](OC(=O)c2cc3ccccc3oc2=O)[C@@H](NC(=O)Cc2ccc(OC)cc2)c2cc(OCCCO)ccc2N1C(=O)Cc1ccc(OC)cc1 ; wanted: its composite z-score
Output line: 0.776

Input line: Need composite z-score, item C=CCN1C(=O)[C@@]2(O[C@@H](CCO)[C@H]([Si](C)(C)c3ccc(OC)cc3)[C@H]2C)c2cc(N3CCCCC3=O)ccc21
Output line: 0.774

Input line: Return reported composite z-score; argument: CC[C@@H]1C=C(C(=O)O)[C@H](c2cccc(Cl)c2)N1S(=O)(=O)c1ccc(C)cc1
Output line: 0.514

Input line: So what's the measured composite z-score for this one? C=CC[C@]12N=C(c3ccc(OCCCO)cc3)O[C@H]1c1ccccc1N(CCC)C2=O
Output line: 1.18

Input line: Dear colleague, I am looking for the recorded composite z-score of the following compound: C=C1C(=O)C=C2CN(C(=O)c3ccccc3)[C@@](Cc3ccc(F)cc3)(C(=O)OC)[C@@H]12
Output line: 0.641

Input line: What does the data say about its composite z-score? Entry: COCCOC(=O)N1C(=O)[C@@]2(c3cc(C#CCCO)ccc31)[C@H](C(=O)N1CCN(c3ncccn3)CC1)[C@H]1C(=O)O[C@H](c3ccccc3)[C@H](c3ccccc3)N1[C@@H]2c1ccc(OCCO)cc1
Output line: 1.24

Input line: Form field: reported composite z-score of C=C(CCCC)/C(=C/C[C@@H](OC(C)=O)c1ccc(OCCO)cc1)c1cc(C(=O)OC)ccc1OC
Output line: 1.14

Input line: Could you share which composite z-score value was measured for O=C1OCC=C[C@H]2OC34C=CCN(Cn5nnc6ccccc65)C(=O)[C@H]3N(CCO)C(=O)[C@@H]4[C@@H]12 (some centres not stated) ?
Output line: 0.101

Input line: # input compound: COc1ccc(C(=O)Nc2ccc(CN3C(=O)[C@]4(O[C@H](CC(=O)N(CCO)Cc5ccccc5)[C@@H]([Si](C)(C)c5ccc(OC)cc5)[C@@H]4C)c4ccccc43)cc2)cc1 ; wanted: its composite z-score
Output line: 1.11

Input line: Given the entry COCCOC(=O)N1C(=O)[C@@]2(c3cc(C#CCNC(N)=O)ccc31)[C@H](c1ccc(O)cc1)N1[C@H](c3ccccc3)[C@H](c3ccccc3)OC(=O)[C@H]1[C@@H]2C(=O)N1CCc2cc(OC)c(OC)cc2C1 , report its measured composite z-score.
Output line: 0.391

Input line: Give its composite z-score value. Item: O=C1C2C=CC(C(O)C3CC=CCC3)N(Nc3ccc([N+](=O)[O-])cc3)C2C(=O)N1c1ccccc1 (configuration not stated)
Output line: 0.811

Input line: Item COC(=O)[C@@]1(Cc2ccc(OC)cc2)[C@@H]2[C@@H](CC(=O)[C@H]2CC(=O)C(=O)N(C)C)CN1C(=O)c1ccccc1 has what recorded composite z-score?
Output line: 0.625

Input line: Fill in the blank: the reported composite z-score of CCCNC(=O)[C@@]1(Sc2ccc(C)cc2)CC(=O)N(Cc2cc(C(F)(F)F)cc(C(F)(F)F)c2)[C@@H]1c1ccc(CO)cc1 is ____.
Output line: -0.441

Input line: What measured composite z-score goes with C=C(COC)/C(=C/C[C@@H](OC(C)=O)c1cccc(OCCO)c1)c1cnc2ccccc2c1 ?
Output line: -0.219

Input line: Which value of composite z-score has been reported for COc1ccc(NN2C(C(O)c3ccc(F)cc3)C=CC3C(=O)N(C4CCCCC4)C(=O)C32)cc1 (configuration not stated) in the records?
Output line: 0.565
